System: SW48 (Colorectal Carcinoma)
Method Summary: combination Emax (second highest fraction inhibited in the dose matrix, 72 h); higher = more inhibition; extreme values may be limits of the assay

- Compound: "C[C@@H](Nc1cc(F)cc(F)c1)c1cc(C(=O)N(C)C)cc2c(=O)cc(N3CCOCC3)oc12 [AZD8186] + CC(=O)c1c(C)c2cnc(Nc3ccc(N4CCNCC4)cn3)nc2n(C2CCCC2)c1=O [Palbociclib] (first compound max 10 µM, 7x7, partner max 10 µM)"
  combination Emax: 0.617
- Compound: "CN(CCO)CC[C@H](CSc1ccccc1)Nc1ccc(S(=O)(=O)NC(=O)c2ccc(N3CCC([C@@H](O)c4ccccc4-c4ccc(Cl)cc4)CC3)cc2)cc1S(=O)(=O)C(F)(F)F [AZD4320] + Cc1cc2ncnn2cc1Nc1ncc2c(n1)n(C1CCOCC1)c(=O)n2C [AZD7648] (first compound max 1 µM, 7x7, partner max 10 µM)"
  combination Emax: 0.632
- Compound: "NC1(C(=O)N[C@@H](CCO)c2ccc(Cl)cc2)CCN(c2ncnc3[nH]ccc23)CC1 [Capivasertib] + CC(C)n1c(=O)n(C)c2cnc3cc(F)c(-c4ccc(OCCCN5CCCCC5)nc4)cc3c21 [AZD1390] (first compound max 10 µM, 7x7, partner max 0.3 µM)"
  combination Emax: 0.497
- Compound: "C[C@@H]1COCCN1c1cc(C2([S@](C)(=N)=O)CC2)nc(-c2ccnc3[nH]ccc23)n1 [AZD6738] + Nc1ccn([C@@H]2O[C@H](CO)[C@@H](O)C2(F)F)c(=O)n1 [Gemcitabine] (first compound max 10 µM, 7x7, partner max 0.3 µM)"
  combination Emax: 0.818
- Compound: "Cc1c2c(nn1C)CSCc1cc(n(C)n1)CSc1cc(c3ccccc3c1)OCCCc1c(C(=O)O)n(C)c3c-2c(Cl)ccc13 [AZD5991] + Cn1cnc2c(F)c(Nc3ccc(Br)cc3Cl)c(C(=O)NOCCO)cc21 [Selumetinib] (first compound max 1 µM, 7x7, partner max 3 µM)"
  combination Emax: 0.565
- Compound: "C=CCn1c(=O)c2cnc(Nc3ccc(N4CCN(C)CC4)cc3)nc2n1-c1cccc(C(C)(C)O)n1 [AZD1775] + O=C(c1cc(Cc2n[nH]c(=O)c3ccccc23)ccc1F)N1CCN(C(=O)C2CC2)CC1 [Olaparib] (first compound max 1 µM, partner max 10 µM)"
  combination Emax: 0.409
- Compound: "Cc1cc2ncnn2cc1Nc1ncc2c(n1)n(C1CCOCC1)c(=O)n2C [AZD7648] + C=CCn1c(=O)c2cnc(Nc3ccc(N4CCN(C)CC4)cc3)nc2n1-c1cccc(C(C)(C)O)n1 [AZD1775] (first compound max 10 µM, partner max 1 µM)"
  combination Emax: 0.45
